Sourced from patent US20200215036A1

Target sequence: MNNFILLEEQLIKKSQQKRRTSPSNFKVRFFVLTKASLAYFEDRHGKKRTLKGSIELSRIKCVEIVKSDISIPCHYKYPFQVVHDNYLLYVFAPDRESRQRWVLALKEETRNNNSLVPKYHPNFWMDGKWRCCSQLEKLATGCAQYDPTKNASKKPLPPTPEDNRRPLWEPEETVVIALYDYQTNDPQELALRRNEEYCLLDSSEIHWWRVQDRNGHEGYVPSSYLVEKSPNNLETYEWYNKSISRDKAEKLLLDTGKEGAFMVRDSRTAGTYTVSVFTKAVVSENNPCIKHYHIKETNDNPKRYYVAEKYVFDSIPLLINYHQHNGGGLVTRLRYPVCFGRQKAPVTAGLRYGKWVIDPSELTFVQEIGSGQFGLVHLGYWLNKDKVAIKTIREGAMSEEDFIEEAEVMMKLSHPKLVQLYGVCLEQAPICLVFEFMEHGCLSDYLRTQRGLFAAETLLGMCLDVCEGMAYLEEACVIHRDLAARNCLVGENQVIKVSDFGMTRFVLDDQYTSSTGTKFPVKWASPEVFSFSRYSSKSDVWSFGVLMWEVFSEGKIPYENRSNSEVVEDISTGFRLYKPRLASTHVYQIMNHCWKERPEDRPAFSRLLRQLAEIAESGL
pIC50: −log10 of the molar value.
Endpoint label: pIC50

[
  {
    "Input smiles": "C=CC(=O)N1CC[C@]2(C1)C[C@H](n1c(NC(=O)c3cc(C(C)(C)C)no3)nc3cc(CN4CCCC4)ccc31)C2",
    "pIC50": 6.27
  }
]

(1) C=CC(=O)N1CC[C@]2(C1)C[C@H](n1c(NC(=O)c3cc(C)no3)nc3cc(CN4CCOCC4)ccc31)C2
(2) C=CC(=O)N1CC[C@]2(C1)C[C@H](n1c(NC(=O)c3cc(C)no3)nc3cc(CN4CCN(C)CC4)ccc31)C2
Req: So which one has the bigger pIC50 here, 1 or 2 ? Mark your answer with the label of the selected entry.
Resp: 1
(1: 7.39, 2: 7.09)
